- System Under Test: HLA-A*0206 (human)
- Assay Explanation: inhibition of 125I-labelled standard peptide binding to purified HLA-A*0206, gel filtration
- Test Conditions: remark: other sources report otherwise
Measure: binding affinity ratio (IC50 of standard peptide / IC50 of test peptide)

Field: example entries. Status: answers known.
CALPERPSLYT (modifications not checked) [… (PSA, position 230)] = 0.0016
CARAYSEKVT (modifications not checked) [… (Kallikrein, position 184)] = 0.003
CLKKNSQVWL (modifications not checked) [… (Kallikrein, position 66)] = 0.0002

Moving on to the next binder.
-- ask For CAGRWTGGKST (modifications not checked) [… (PSA, position 194)] , what is its reported binding affinity ratio (IC50 of standard peptide / IC50 of test peptide)?
-- reply 0.0002
